# System: HEK293T cells carrying the ATF4 luciferase reporter
# assay summary: ATF4-Luc assay (in vitro model of vanishing white matter disease)
# Type: cell-based
# study conditions: Homo sapiens, HEK-293T; HEK293T cells with ATF4 luciferase reporter, 1 μg/mL tunicamycin, 7 hours, One Glo luminescence
Listed here are compounds together with their documented EC50.

| compound | value measured |
| --- | --- |
| O=C(COc1ccc(Cl)c(F)c1)NC12CC(NC(=O)[C@H]3CCc4cc(F)ccc4O3)(C1)C2 | < 10 nM |
| O=C(COc1ccc(Cl)c(F)c1)NC12CC(NC(=O)[C@H]3Cc4ccccc4N3)(C1)C2 | 50 to 250 nM |
| O=C(COc1ccc(Cl)c(F)c1)NC12CC(NC(=O)[C@@H]3CNc4cc(Cl)ccc4O3)(C1)C2 (single isomer, unassigned) | < 10 nM |

q: State its EC50: `O=C(COc1ccc(Cl)c(F)c1)NC12CCC(NC(=O)[C@H]3COc4cc(Cl)ccc4O3)(CC1)C[C@@H]2O`
a: < 10 nM

---

# System: HEK293T cells carrying the ATF4 luciferase reporter
# assay summary: ATF4-Luc assay (in vitro model of vanishing white matter disease)
# Assay type: cell-based
# study conditions: Homo sapiens, HEK-293T; HEK293T cells with ATF4 luciferase reporter, 1 μg/mL tunicamycin, 7 hours, One Glo luminescence
pEC50: −log10 of the molar value.
test readout: pEC50

| compound | value measured |
| --- | --- |
| O=C(COc1ccc(Cl)c(F)c1)NC12CC(NC(=O)[C@H]3CNc4cc(Cl)ccc4O3)(C1)C2 (single isomer, unassigned) | > 8.00 |
| O=C(COc1ccc(Cl)c(F)c1)NC12CC(NC(=O)C3CNc4cc(F)c(F)cc4O3)(C1)C2 (centres unmarked) | > 8.00 |
| O=C(COc1ccc(Cl)c(F)c1)NC12CC(NC(=O)C3CN(C(=O)[C@@H]4C[C@@H]4F)c4cc(Cl)ccc4O3)(C1)C2 (some centres unmarked) | 6.30 to 6.60 |
| O=C(COc1ccc(Cl)c(F)c1)NC12CC(NC(=O)C3CN(C(=O)c4ccc(S(=O)(=O)F)cc4)c4cc(Cl)ccc4O3)(C1)C2 (centres unmarked) | 5.70 to 6.30 |
| O=C(COc1ccc(Cl)c(F)c1)NC12CC(NC(=O)[C@@H]3COc4ccccc4O3)(C1)C2 | 6.60 to 7.30 |

q: Consider the compound Cc1nn(C)cc1S(=O)(=O)N1CC(C(=O)NC23CC(NC(=O)COc4ccc(Cl)c(F)c4)(C2)C3)Oc2ccc(Cl)cc21 (centres unmarked) and give its recorded pEC50.
a: 5.70 to 6.30

q: Fill in reported pEC50 for this entry: Cc1cc(S(=O)(=O)N2CC(C(=O)NC34CC(NC(=O)COc5ccc(Cl)c(F)c5)(C3)C4)Oc3ccc(Cl)cc32)c(C(F)(F)F)o1 (centres unmarked)
a: < 5.70

q: Give reported pEC50 value for COCC(=O)N1CC(C(=O)NC23CC(NC(=O)COc4ccc(Cl)c(F)c4)(C2)C3)Oc2ccc(Cl)cc21 (centres unmarked)
a: 7.30 to 8.00

q: Name the recorded pEC50 of the compound listed here: COc1cccc(C(=O)N2CC(C(=O)NC34CC(NC(=O)COc5ccc(Cl)c(F)c5)(C3)C4)Oc3ccc(Cl)cc32)c1 (centres unmarked)
a: 5.70 to 6.30

q: Answer with the recorded pEC50 of Cc1ccc(C(=O)N2CC(C(=O)NC34CC(NC(=O)COc5ccc(Cl)c(F)c5)(C3)C4)Oc3ccc(Cl)cc32)o1 (centres unmarked) only.
a: 6.60 to 7.30
